Recorded ERα potency, fold higher than Ral by entry
molecular target: UniProt P03372; assay: Fluorescence polarization competition assay: antagonistic potency and relative binding affinity; conditions: ratio of IC50 values
Sequence (P03372 whole entry): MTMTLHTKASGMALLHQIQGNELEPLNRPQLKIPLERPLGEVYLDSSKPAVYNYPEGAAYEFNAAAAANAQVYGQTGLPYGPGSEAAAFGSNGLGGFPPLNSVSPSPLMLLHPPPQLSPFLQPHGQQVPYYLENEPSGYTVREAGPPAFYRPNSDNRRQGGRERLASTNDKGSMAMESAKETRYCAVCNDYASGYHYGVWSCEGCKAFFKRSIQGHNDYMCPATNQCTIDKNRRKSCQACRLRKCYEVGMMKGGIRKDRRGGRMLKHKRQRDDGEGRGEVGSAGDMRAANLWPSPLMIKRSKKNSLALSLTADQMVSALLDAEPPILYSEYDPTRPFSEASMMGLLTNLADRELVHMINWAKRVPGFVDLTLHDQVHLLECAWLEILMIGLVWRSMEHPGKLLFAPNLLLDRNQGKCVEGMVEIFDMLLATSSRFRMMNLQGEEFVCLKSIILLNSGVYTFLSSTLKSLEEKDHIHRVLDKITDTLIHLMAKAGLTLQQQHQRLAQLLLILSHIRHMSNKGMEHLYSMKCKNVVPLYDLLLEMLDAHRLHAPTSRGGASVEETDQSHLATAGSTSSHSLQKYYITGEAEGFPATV
Number in fold, nothing else.

Completed entries (count: 6):
[[record]]
compound = "CC(=O)c1cc(C(=O)O[C@@H]2/C=C/C(=O)O[C@@H](O)CCC/C=C/[C@@H]3C[C@H](O)C[C@H]32)ccc1OCCN1CCCC(O)C1=O (stereo partly shown)"
value_kind = "ERα potency, fold higher than Ral"
numeric_result = 1.85

[[record]]
compound = "CC(=O)c1cc(C(=O)O[C@@H]2/C=C/C(=O)O[C@@H](O)CCC/C=C/[C@@H]3C[C@H](O)C[C@H]32)ccc1OCCN1C=Cc2ccccc2C1"
value_kind = "ERα potency, fold higher than Ral"
numeric_result = 1.16

[[record]]
compound = "CC(=O)c1cc(C(=O)OC2/C=C/C(=O)O[C@@H](O)CCC/C=C/[C@@H]3C[C@H](O)C[C@@H]23)ccc1OCCN1CCC=C(C(=O)O)C1 (stereo partly shown)"
value_kind = "ERα potency, fold higher than Ral"
numeric_result = 1.68

[[record]]
compound = "CNCCOc1ccc(C(=O)O[C@@H]2/C=C/C(=O)O[C@@H](O)CCC/C=C/[C@@H]3C[C@H](O)C[C@H]32)cc1C(C)=O"
value_kind = "ERα potency, fold higher than Ral"
numeric_result = 1.30

[[record]]
compound = "CC(=O)c1cc(C(=O)O[C@@H]2/C=C/C(=O)O[C@@H](O)CCC/C=C/[C@@H]3C[C@H](O)C[C@H]32)ccc1OCCN1CCCC1"
value_kind = "ERα potency, fold higher than Ral"
numeric_result = 1.06

[[record]]
compound = "CC(=O)c1cc(C(=O)O[C@@H]2/C=C/C(=O)O[C@@H](O)CCC/C=C/[C@@H]3C[C@H](O)C[C@H]32)ccc1OCCN1CC(C(=O)O)=CCC1=O"
value_kind = "ERα potency, fold higher than Ral"
numeric_result = 1.64


Find the recorded ERα potency, fold higher than Ral belonging to "CC(=O)c1cc(C(=O)O[C@@H]2/C=C/C(=O)O[C@@H](O)CCC/C=C/[C@@H]3C[C@H](O)C[C@H]32)ccc1OCCN(C)C" and report it.
1.37

* * *

System: Ishikawa endometrial adenocarcinoma cells
Assay: Antiproliferative assay
Format: cell-based
Conditions: Homo sapiens, growth inhibition
Source text: As SERMs profile is often associated with the stimulation of endometrial cell proliferation and an increase in the incidence of endometrial cancer (EC), the herein compounds were therefore evaluated against Ishikawa endometrial adenocarcinoma cells (Table 8, Supplementary Material Figures […]). […] However, future experimental elaboration, currently beyond the authors' experimental facilities, is required to confirm compounds' promising profiles in terms of no EC induction.
value kind: IC50 (nM)
Number in nM, nothing else.

Completed entries (count: 5):
[[record]]
compound = "CC(=O)c1cc(C(=O)O[C@@H]2/C=C/C(=O)O[C@@H](O)CCC/C=C/[C@@H]3C[C@H](O)C[C@H]32)ccc1OCCN1CCCC1 [Compound 3DPQ-11]"
measured_on = "Ishikawa endometrial adenocarcinoma cells"
value_kind = "IC50"
numeric_result = 1.37

[[record]]
compound = "CC(=O)c1cc(C(=O)O[C@@H]2/C=C/C(=O)O[C@@H](O)CCC/C=C/[C@@H]3C[C@H](O)C[C@H]32)ccc1OCCN1Cc2cccnc2C1 [Compound 3DPQ-6]"
measured_on = "Ishikawa endometrial adenocarcinoma cells"
value_kind = "IC50"
numeric_result = 1.46

[[record]]
compound = "O=C(c1ccc(OCCN2CCCCC2)cc1)c1c(-c2ccc(O)cc2)sc2cc(O)ccc12 [Ral., Raloxifene, reference compound]"
measured_on = "Ishikawa endometrial adenocarcinoma cells"
value_kind = "IC50"
numeric_result = 0.97

[[record]]
compound = "CNCCOc1ccc(C(=O)O[C@@H]2/C=C/C(=O)O[C@@H](O)CCC/C=C/[C@@H]3C[C@H](O)C[C@H]32)cc1C(C)=O [Compound 3DPQ-1]"
measured_on = "Ishikawa endometrial adenocarcinoma cells"
value_kind = "IC50"
numeric_result = 0.94

[[record]]
compound = "CC(=O)c1cc(C(=O)O[C@@H]2/C=C/C(=O)O[C@@H](O)CCC/C=C/[C@@H]3C[C@H](O)C[C@H]32)ccc1OCCN1CC(C(=O)O)=CCC1=O [Compound 3DPQ-9]"
measured_on = "Ishikawa endometrial adenocarcinoma cells"
value_kind = "IC50"
numeric_result = 0.89


From here, focus on the item given below.
Test system Ishikawa endometrial adenocarcinoma cells; read-out IC50; what value for CC(=O)c1cc(C(=O)OC2C=CC(=O)OC(O)CCCC=CC3CC(O)CC32)ccc1OCCN1C(=O)CCC1=O (centres unmarked) [Compound 3DPQ-5] ?
1.42
